molecular target: GPR35 (Homo sapiens); test: label-free dynamic mass redistribution; conditions: read-out: EC50/IC50; agonist mode; HBSS, 10 mM HEPES, pH 7.4
Sequence (Q9HC97 whole entry): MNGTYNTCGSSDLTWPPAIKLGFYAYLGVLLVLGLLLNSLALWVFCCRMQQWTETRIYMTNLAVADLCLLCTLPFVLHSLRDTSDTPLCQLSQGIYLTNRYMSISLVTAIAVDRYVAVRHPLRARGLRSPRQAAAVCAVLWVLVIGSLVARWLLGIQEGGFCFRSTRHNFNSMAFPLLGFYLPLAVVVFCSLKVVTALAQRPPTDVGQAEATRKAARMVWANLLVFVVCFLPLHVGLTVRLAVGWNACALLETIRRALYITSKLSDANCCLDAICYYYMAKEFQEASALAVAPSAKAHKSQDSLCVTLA
Please provide measured EC50 for the entries that follow.

Known EC50 results, listed for orientation:
Inquiry: Recorded EC50 of COc1c(/C=C/C(=O)c2ccc(O)cc2)ccc(O)c1O , please.
Reply text: 25.1 µM

Inquiry: Next: O=C1c2c(O)cc(O)cc2O[C@H](c2ccc(O)c(O)c2)[C@H]1O
Reply text: > 200 µM

Inquiry: Next: O=C(/C=C/c1ccc(O)c(O)c1)O[C@@H]1[C@H](O)C[C@@](O)(C(=O)O)C[C@H]1OC(=O)/C=C/c1ccc(O)c(O)c1
Reply text: 114 µM

Inquiry: Next: O=C(/C=C/c1ccc(O)cc1)c1ccc(O)cc1O
Reply text: > 200 µM

Inquiry: Next: O=C(O)[C@H]1O[C@@H](Oc2cc3oc(-c4ccccc4)cc(=O)c3c(O)c2O)[C@H](O)[C@@H](O)[C@@H]1O
Reply text: > 200 µM

Continue with the compound presented below.
Inquiry: Recorded EC50 of COc1c(O)cc2occ(-c3ccc(O)cc3)c(=O)c2c1O , please.
Reply text: > 200 µM
